The measurements presented in this section are drawn from paper PMC11162469.

Target: rat RXFP2 (Rattus norvegicus, UniProt F7EMH8)
Sequence (F7EMH8 20-737): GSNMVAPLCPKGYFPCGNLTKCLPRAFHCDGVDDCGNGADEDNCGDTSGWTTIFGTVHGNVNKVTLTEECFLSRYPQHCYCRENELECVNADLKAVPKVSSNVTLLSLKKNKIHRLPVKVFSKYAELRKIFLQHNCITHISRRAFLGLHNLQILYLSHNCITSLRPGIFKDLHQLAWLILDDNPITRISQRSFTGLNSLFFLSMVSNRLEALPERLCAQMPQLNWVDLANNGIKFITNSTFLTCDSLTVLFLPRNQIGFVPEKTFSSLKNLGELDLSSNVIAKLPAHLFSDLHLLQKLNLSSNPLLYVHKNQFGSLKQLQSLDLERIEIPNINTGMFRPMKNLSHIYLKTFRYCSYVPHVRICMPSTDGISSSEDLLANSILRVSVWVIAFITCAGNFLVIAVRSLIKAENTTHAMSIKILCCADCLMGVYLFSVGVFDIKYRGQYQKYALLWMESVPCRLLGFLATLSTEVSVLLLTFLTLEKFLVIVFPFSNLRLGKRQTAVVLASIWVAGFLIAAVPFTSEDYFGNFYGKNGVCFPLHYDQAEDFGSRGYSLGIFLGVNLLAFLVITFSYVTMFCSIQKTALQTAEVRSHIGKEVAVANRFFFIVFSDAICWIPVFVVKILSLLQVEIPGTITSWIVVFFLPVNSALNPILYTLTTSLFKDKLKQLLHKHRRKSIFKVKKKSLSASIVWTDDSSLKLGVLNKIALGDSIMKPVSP
Test: INSL3-stimulated cAMP assay in HEK293 stably expressing rat RXFP2;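 further: cAMP measured with an HitHunter kit in 384-well plates, 11-point dose–response curves up to 1 µM antibody, four-parameter variable-slope fit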
Details: read-out: HEK293-rat RXFP2 cAMP IC50; INSL3 EC80-stimulated cAMP, stable expression; N = 2
measurement-kind: IC50 (nM)
One number for each entry, in nM.

Identify the reported IC50 for the following entry. 3F1: RXFP2 monoclonal antibody from hybridoma, recombinantly expressed in a rat IgG2b backbone (antibody, V domains shown) VH: QVQLKESGPGLVAPSQSLSITCTVSGFSLTDYGVSWIRQPPGKGLEWLGVIWGGGSTDYNPALKSRLSISKDNSKSQVFLKMNSLQADDTAMYYCVKHEGYYAMDYWGQGTSVTVSS VL: DIQMTQSPASLSVSVGETVTITCRASENIYSNLAWYQQKQGKSPHLLVYAVTNLADGVPSRFSGSGSGTQYSLKINSLQSEDFGSYYCQHFWGTPYTFGGGTKLEIK 19.9
